- test.summary: Solubility test in water by LC-MS analysis
- Type: physicochemical
- condition.details: thermodynamic from solid; from calibration curve and LC-MS signal intensity; 1 mg in 1 mL of water, sonicated, filtered
- Procedure: Next, a solubility test of PrdP2Phen was performed. Note that the solubility test was conducted at a pressure of one atmosphere, at room temperature (RT). In the LC-MS analysis, liquid chromatography (LC) separation was carried out with ACQUITY UPLC manufactured by Waters Corporation, and MS analysis (mass spectrometry) was carried out with Xevo G2 Tof MS manufactured by Waters Corporation. […] Next, the water solubility of Pyrrd-Phen was measured. […]

>  <smiles.representation>
c1cc(N2CCCC2)c2ccc3c(N4CCCC4)ccnc3c2n1

>  <solubility at 5 min, µg/mL>
59

$$$$
